// data source = patent US8426447B2

biological target: BACE1 (Homo sapiens, UniProt P56817); assay: In Vitro Enzymatic BACE FRET (Fluorescence Resonance Energy Transfer) Assay; type: biochemical; conditions: Table III; IC50's in uM ranges; read-out: BACE1 FRET assay
Sequence (P56817 46-501, species assumed): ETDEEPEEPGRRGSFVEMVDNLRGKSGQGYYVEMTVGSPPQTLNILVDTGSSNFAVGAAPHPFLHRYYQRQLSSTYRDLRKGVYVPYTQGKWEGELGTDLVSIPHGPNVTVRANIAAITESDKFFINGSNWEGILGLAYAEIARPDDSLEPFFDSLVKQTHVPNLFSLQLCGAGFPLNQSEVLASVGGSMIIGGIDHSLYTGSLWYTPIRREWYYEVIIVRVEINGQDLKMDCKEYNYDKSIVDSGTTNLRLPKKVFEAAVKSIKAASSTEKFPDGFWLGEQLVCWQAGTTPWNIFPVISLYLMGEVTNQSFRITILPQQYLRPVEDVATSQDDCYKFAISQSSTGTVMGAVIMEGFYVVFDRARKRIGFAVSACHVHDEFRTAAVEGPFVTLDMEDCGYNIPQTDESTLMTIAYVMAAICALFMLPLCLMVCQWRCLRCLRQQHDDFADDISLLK
Test Readout: IC50

> print(dat)
                            compound.smiles                         target.system  measurement
1  CC(C)(C)COc1ccc2c(c1)[C@@]1(COC(N)=N1)c1cc(-c3ncccn3)ccc1O2  BACE1 (Homo sapiens, UniProt P56817)     < 0.1 µM
2  CC(=O)COc1ccc2c(c1)[C@]1(COC(N)=N1)c1cc(C#CC3CC3)ccc1O2  BACE1 (Homo sapiens, UniProt P56817)  0.1 to 1 µM

Q. So what does the record say about IC50 for COC(C)(C)COc1ccc2c(c1)[C@]1(COC(N)=N1)c1cc(-c3cccnc3)ccc1O2 ?
A. < 0.1 µM

Q. Item CC(C)(C#N)COc1ccc2c(c1)[C@]1(COC(N)=N1)c1cc(C#CC3CC3)ccc1O2 has what recorded IC50?
A. < 0.1 µM

---

biological target: BACE1 (Homo sapiens); test: In Vitro Enzymatic BACE FRET (Fluorescence Resonance Energy Transfer) Assay; format: biochemical; settings: read-out: BACE1 FRET assay
Test Readout: IC50

> print(dat)
                            compound.smiles         target.system  test.readout     measurement
1  NC1=N[C@@]2(CO1)c1cc(-c3cccnc3)ccc1Oc1ccc(-c3ccc(F)nc3)cc12  BACE1 (Homo sapiens)          IC50        < 100 nM
2  CC(C)(C)COc1ccc2c(c1)[C@@]1(COC(N)=N1)c1cc(C(=O)N3CCCC3)ccc1O2  BACE1 (Homo sapiens)          IC50  100 to 1000 nM
3  NC1=N[C@@]2(CO1)c1cc(-c3ccccc3F)ccc1Oc1cnc(C3=CCOCC3)cc12  BACE1 (Homo sapiens)          IC50        < 100 nM
4  NC1=N[C@]2(CO1)c1cc(/C=C/C(=O)O)ccc1Oc1ccc(-c3cncnc3)cc12  BACE1 (Homo sapiens)          IC50  100 to 1000 nM
5  NC1=N[C@@]2(CO1)c1cc(-c3cccnc3)ccc1Oc1cnc(C3CCCCC3)cc12  BACE1 (Homo sapiens)          IC50        < 100 nM
6  NC1=N[C@@]2(CO1)c1cc(-c3cccc(Cl)c3)ccc1Oc1cnc(C3=CCOCC3)cc12  BACE1 (Homo sapiens)          IC50        < 100 nM
7  CC1(C)C=C(c2cc(F)c3c(c2)[C@]2(COC(N)=N2)c2cc(-c4cncnc4)ccc2O3)CCO1  BACE1 (Homo sapiens)          IC50        < 100 nM

Moving on to another compound below.
Q. For CC(C)(C)COc1ccc2c(c1)[C@]1(COC(N)=N1)c1cc(-c3c[nH]cn3)ccc1O2 , what is its reported IC50?
A. 100 to 1000 nM

---

target: BACE1 (Homo sapiens); assay: In Vitro Enzymatic BACE FRET (Fluorescence Resonance Energy Transfer) Assay; assay type: biochemical; settings: Table IV, class symbols; read-out: BACE1 FRET assay
Test Readout: IC50

> print(dat)
                                   compound      measurement
1  NC1=N[C@@]2(CO1)c1cc(-c3cncnc3)ccc1Oc1cc(F)c(C3=CCOCC3)cc12 [Example 292]         < 100 nM
2  CCCNC(=O)c1ccc2c(c1)[C@@]1(COC(N)=N1)c1cc(OCC(C)(C)C)ccc1O2 [compound 657]         < 100 nM
3  NC1=N[C@]2(CO1)c1ccccc1Oc1ccc(-c3cccc4cccnc34)cc12 [compound 630]  1000 to 5000 nM
4  CC(C)(C)COc1ccc2c(c1)[C@@]1(COC(N)=N1)c1cc(-c3ccccc3)cnc1O2 [compound 807]         < 100 nM
5  CC(=O)c1sccc1-c1ccc2c(c1)[C@@]1(COC(N)=N1)c1cc(OCC(C)(C)C)ccc1O2 [compound 835]  1000 to 5000 nM
6  CC(C)(C)COc1ccc2c(c1)[C@]1(COC(N)=N1)c1cc(-c3cccnn3)ccc1O2 [compound 649]         < 100 nM

Q. Form field: reported IC50 of CC(C)(C)COc1ccc2c(c1)[C@]1(COC(N)=N1)c1cc(-c3ccc(N4CCOCC4)nc3)ccc1O2 [compound 912]
A. 1000 to 5000 nM

Q. Fill in the blank: the reported IC50 of CC(C)(C)C#Cc1cc2c(cn1)Oc1ccc(-c3cccnc3)cc1[C@@]21COC(N)=N1 [compound 845] is ____.
A. < 100 nM

Q. Form field: reported IC50 of NC1=N[C@]2(CO1)c1cc(-c3ccc(O)cc3)ccc1Oc1ccc(-c3cncnc3)cc12 [compound 890]
A. < 100 nM

Q. Please look up its IC50: COc1ccc2c(c1)[C@]1(COC(N)=N1)c1cc(NC(=O)c3ccc(Cl)cn3)ccc1O2 [compound 652]
A. < 100 nM

Q. # get_value(readout='IC50', item= COc1ccc2c(c1)[C@]1(COC(N)=N1)c1cc(-c3cccc4ncccc34)ccc1O2 [compound 591] )
A. 1000 to 5000 nM

Q. Sample NC1=N[C@]2(CO1)c1cnccc1Oc1ccc(-c3cccnc3)cc12 [compound 557] — what was its IC50?
A. > 5000 nM

Q. Record request: IC50 value, item NC1=NC2(CO1)c1cnccc1Oc1ccc(-c3cccnc3)cc12 (stereo not drawn) [compound 648]
A. 1000 to 5000 nM

Q. Bench note: what IC50 did COC(C)(C)C#Cc1cnc2c(c1)[C@]1(COC(N)=N1)c1cc(-c3cnccn3)ccc1O2 [Example 586] show?
A. < 100 nM

Q. For the compound shown here, NC1=N[C@@]2(CO1)c1cc(-c3cc(Cl)ccc3F)ccc1Oc1ncc(C3=CCOCC3)cc12 [Example 296] , give the reported IC50.
A. < 100 nM

Q. I would be grateful if you could share the reported IC50 for COc1cc(F)c2c(c1)[C@@]1(COC(N)=N1)c1cc(-c3cncnc3)ccc1O2 [compound 582] .
A. 1000 to 5000 nM

Q. Look at this compound and give its reported IC50. NC1=N[C@]2(CO1)c1cc(-c3ccc(OC(F)(F)F)cc3)ccc1Oc1ccc(-c3cncnc3)cc12 [compound 840]
A. < 100 nM

---

biological target: BACE1 (Homo sapiens, UniProt P56817); test: In Vitro Enzymatic BACE FRET (Fluorescence Resonance Energy Transfer) Assay; format: biochemical; settings: read-out: BACE1 FRET assay
Test Readout: IC50

Known results for compounds:
> print(dat)
                                   compound      measurement
1  NC1=N[C@@]2(CO1)c1cc(-c3cc(Cl)ccc3F)ccc1Oc1cnc(C3=CCOCC3)cc12 [compound 424]         < 100 nM
2  COc1ccc(-c2ccc3c(c2)[C@@]2(COC(N)=N2)c2cc(C#CC(C)(C)OC)cnc2O3)cn1 [compound 767]   100 to 1000 nM
3  CC(C)(C)COc1ccc2c(c1)[C@]1(COC(N)=N1)c1cc(C3CCCC3)ccc1O2 [compound 701]         < 100 nM
4  N#Cc1ccccc1Oc1ccc2c(c1)[C@]1(COC(N)=N1)c1cc(Br)ccc1O2 [compound 997]        > 5000 nM
5  CC(C)(C)COc1ccc2c(n1)[C@@]1(COC(N)=N1)c1cc(Br)ccc1O2 [compound 736]  1000 to 5000 nM

# context switch: different compound, same IC50
Q. Need IC50, item CC(C)(C)COc1ccc2c(c1)[C@@]1(COC(N)=N1)c1cc(-c3cncc(F)c3)cnc1O2 [compound 753]
A. < 100 nM

---

molecular target: UniProt P56817; assay: In Vitro BACE Cell-based Assay (HEK cell assay): Aβ40 in conditioned medium of cells stably expressing Amyloid Precursor Protein, sandwich ELISA; conditions: Table IV, class symbols; read-out: HEK cell assay
Test Readout: IC50

Sample answers from the record:
> print(dat)
                            compound.smiles  test.readout  measurement
1  CC(=O)/C=C/c1ccc2c(c1)[C@]1(COC(N)=N1)c1cc(-c3cncnc3)ccc1O2          IC50  0.1 to 1 µM
2  NC1=N[C@]2(CO1)c1cc(OCC(O)(C(F)(F)F)C(F)(F)F)ccc1Oc1ccc(-c3cccnc3)cc12          IC50  0.1 to 1 µM

Q. Any idea what its IC50 is? The molecule is COc1cc(F)c2c(c1)[C@@]1(COC(N)=N1)c1cc(-c3cncnc3)cnc1O2
A. > 5 µM
